Recorded Kd by entry
Molecular target: T1, TRBC1 (T cell receptor beta-chain constant domain 1), interaction partner protein injected in SPR (human, UniProt P01850 1-129, limits assumed)
T1 construct: also called TCR beta constant region 1
T1 sequence (P01850 1-129 limits assumed): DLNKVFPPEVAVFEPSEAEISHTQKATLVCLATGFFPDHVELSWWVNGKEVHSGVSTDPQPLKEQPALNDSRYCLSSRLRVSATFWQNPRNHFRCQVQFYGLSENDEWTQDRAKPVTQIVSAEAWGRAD
Experiment: SPR (Biacore T200), antibody captured on anti-human IgG chip, TRBC1 injected, 25 C, 1:1 Langmuir fit
Procedure: Surface plasmon resonance (SPR) was carried out on several of antibody variants of hJOVI-1 to ascertain affinity, association and dissociation rates. The sequence details of these variants Mut1 to Mut15 used in the Examples section of the present patent application are included in Tables 1 and 2. These anti-TRBC antibody variants have specificity for either TRBC1 or TRBC2. […]

* hJOVI-1 (humanised JOVI-1 antibody, reference antibody) (antibody, V domains shown, Tested in IgG format and captured by anti-human IgG in SPR; also called aTRBC1; anti-TRBC1 antibody hJOVI-1) VH: QVQLVQSGAEVKKPGASVKVSCKASGYTFTGYVMHWVRQAPGQGLEWMGFINPYNDDIQSNERFRGRVTMTRDTSISTAYMELSRLRSDDTAVYYCARGAGYNFDGAYRFFDFWGQGTMVTVSS VL: DIVMTQSPLSLPVTPGEPASISCRSSQRLVHSNGNTYLHWYLQKPGQSPRLLIYRVSNRFPGVPDRFSGSGSGTDFTLKISRVEAEDVGVYYCSQSTHVPYTFGQGTKLEIK | 2.57 nM
* Mut12 (antibody, V domains shown, Variant of hJOVI-1; captured by anti-human IgG in SPR; also called VH T28K, Y32F, A100N, N103L; VL N35K) VH: QVQLVQSGAEVKKPGASVKVSCKASGYKFTGFVMHWVRQAPGQGLEWMGFINPYNDDIQSNERFRGRVTMTRDTSISTAYMELSRLRSDDTAVYYCARGNGYLFDGAYRFFDFWGQGTMVTVSS VL: DIVMTQSPLSLPVTPGEPASISCRSSQRLVHSNGKTYLHWYLQKPGQSPRLLIYRVSNRFPGVPDRFSGSGSGTDFTLKISRVEAEDVGVYYCSQSTHVPYTFGQGTKLEIK | 707 nM

// Mut8 (antibody, V domains shown, Variant of hJOVI-1; captured by anti-human IgG in SPR; also called VH G31S) VH: QVQLVQSGAEVKKPGASVKVSCKASGYTFTSYVMHWVRQAPGQGLEWMGFINPYNDDIQSNERFRGRVTMTRDTSISTAYMELSRLRSDDTAVYYCARGAGYNFDGAYRFFDFWGQGTMVTVSS VL: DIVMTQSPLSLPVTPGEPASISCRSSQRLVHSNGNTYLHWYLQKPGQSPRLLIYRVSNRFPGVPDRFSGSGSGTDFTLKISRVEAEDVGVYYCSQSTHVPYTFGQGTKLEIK : Kd value = 7.69 nM

Provenance of the data: patent US20230109275A1
